- targetOrSystem: AHR (Homo sapiens, UniProt P35869)
- Construct: U87 MG glioblastoma cells (ATCC #HTB-14) endogenously expressing AHR; endogenous in cells; host or cells: U87 MG glioblastoma cells (ATCC #HTB-14)
- Sequence (P35869 11-848): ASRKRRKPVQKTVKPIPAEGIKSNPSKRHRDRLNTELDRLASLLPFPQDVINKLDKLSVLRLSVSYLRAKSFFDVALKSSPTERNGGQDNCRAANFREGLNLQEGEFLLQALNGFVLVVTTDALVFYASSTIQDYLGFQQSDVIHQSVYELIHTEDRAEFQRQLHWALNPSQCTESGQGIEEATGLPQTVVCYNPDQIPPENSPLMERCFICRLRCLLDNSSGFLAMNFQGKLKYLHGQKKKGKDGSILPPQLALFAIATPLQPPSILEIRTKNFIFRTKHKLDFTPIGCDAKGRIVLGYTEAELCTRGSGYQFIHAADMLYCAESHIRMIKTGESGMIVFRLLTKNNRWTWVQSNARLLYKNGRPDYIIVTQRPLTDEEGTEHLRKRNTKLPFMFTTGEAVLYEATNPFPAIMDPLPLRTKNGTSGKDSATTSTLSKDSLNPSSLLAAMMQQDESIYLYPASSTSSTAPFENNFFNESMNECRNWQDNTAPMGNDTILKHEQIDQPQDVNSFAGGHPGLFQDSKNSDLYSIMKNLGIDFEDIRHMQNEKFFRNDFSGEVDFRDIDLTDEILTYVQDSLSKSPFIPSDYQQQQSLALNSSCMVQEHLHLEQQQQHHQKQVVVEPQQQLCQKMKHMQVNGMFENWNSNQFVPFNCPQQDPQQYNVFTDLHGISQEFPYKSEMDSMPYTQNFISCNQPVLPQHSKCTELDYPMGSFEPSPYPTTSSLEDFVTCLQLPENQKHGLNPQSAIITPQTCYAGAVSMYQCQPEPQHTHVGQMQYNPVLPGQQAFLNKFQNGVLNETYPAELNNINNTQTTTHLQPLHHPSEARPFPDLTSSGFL
- experimentNotes: In vitro assay 1: antagonism in human cell line (AHR transactivation, firefly luciferase reporter, kynurenic acid prestimulated)
- Assay type: cell-based
- cond: AHR Antagonism Human IC50 [M], firefly luciferase reporter
observedProperty: IC50 (M)

Cn1nccc1-c1nc2c3cccc(C(F)(F)F)c3nc(N[C@@H]3CNCCNC3=O)n2n1 | 8.75e-09

I: COC(=O)[C@H](Nc1nc2c(Br)cccc2c2nc(-c3cnn(C)c3)nn12)C(C)C
II: COc1ccc(-c2nc3c4cccc(Br)c4nc(N[C@H](C)C(=O)N4CCN(C)[C@H](C)C4)n3n2)cc1
Input line: Field: lower IC50 | Options: I / II // caller expects the label of the chosen entry
Output line: II
(II: 1.32e-09 M, I: 6.28e-09 M)

* * *

- targetOrSystem: AHR (Mus musculus)
- Sequence (P30561 1-848 P471L/N533S/M589L): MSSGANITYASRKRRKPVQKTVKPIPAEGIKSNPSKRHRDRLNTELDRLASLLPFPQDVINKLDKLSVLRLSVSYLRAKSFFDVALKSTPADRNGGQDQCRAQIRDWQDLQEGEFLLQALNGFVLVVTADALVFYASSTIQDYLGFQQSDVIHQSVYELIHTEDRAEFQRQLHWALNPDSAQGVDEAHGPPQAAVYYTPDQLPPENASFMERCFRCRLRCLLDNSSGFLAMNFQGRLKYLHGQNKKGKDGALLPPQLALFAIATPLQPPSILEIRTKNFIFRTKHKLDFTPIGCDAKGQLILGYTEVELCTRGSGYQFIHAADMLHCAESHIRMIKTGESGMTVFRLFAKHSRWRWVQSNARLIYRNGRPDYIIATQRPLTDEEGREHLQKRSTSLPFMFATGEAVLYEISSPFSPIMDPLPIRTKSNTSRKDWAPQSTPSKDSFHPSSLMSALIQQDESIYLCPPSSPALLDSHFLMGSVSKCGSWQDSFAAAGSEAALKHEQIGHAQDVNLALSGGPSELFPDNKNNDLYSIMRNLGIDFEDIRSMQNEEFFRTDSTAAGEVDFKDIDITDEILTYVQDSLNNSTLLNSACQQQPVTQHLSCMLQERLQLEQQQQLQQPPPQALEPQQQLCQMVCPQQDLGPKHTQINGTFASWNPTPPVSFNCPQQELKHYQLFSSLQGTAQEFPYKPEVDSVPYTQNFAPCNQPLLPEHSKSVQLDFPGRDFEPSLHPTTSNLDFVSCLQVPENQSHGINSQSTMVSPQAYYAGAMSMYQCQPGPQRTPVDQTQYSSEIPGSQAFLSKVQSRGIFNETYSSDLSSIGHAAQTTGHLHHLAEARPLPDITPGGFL
- experimentNotes: In vitro assay 3: antagonism in mouse cell line (AHR transactivation, firefly luciferase reporter, kynurenic acid prestimulated)
- Format: cell-based
- cond: Hepa 1c1c7 cells, 200 μM kynurenic acid, 20 hours, firefly luciferase reporter, read-out: AHR Antagonism Mouse IC50
observedProperty: IC50 (µM)

// worked examples, IC50 included
C[C@@H](Nc1nc2c(C(F)(F)F)cccc2c2nc(-c3cnn(C)c3)nn12)C(=O)N(C)CCN(C)C | 0.16
C[C@@H](Nc1nc2c(C(F)(F)F)cccc2c2nc(-c3cnn(C)c3)nn12)C(=O)N1CCN(C)CC1 | 0.0315
CCCCNC(=O)[C@@H](CC)Nc1nc2c(Br)cccc2c2nc(-c3ccc(Cl)cc3OC(F)F)nn12 | 0.003
CCSc1cccc2c1nc(N[C@@H]1CNCCNC1=O)n1nc(-c3cnn(C)c3)nc21 | 5.55

a: CCn1cc(-c2nc3c4cccc(Cl)c4nc(N[C@@H]4CCCCNC4=O)n3n2)c(C)n1
b: COc1ccc(-c2nc3c4cccc(Br)c4nc(N[C@H](C)C(=O)N4CCO[C@@H](C)C4)n3n2)cc1
Input line: Quick check, higher IC50 between a and b ? // caller expects the label of the chosen entry
Output line: b
(b: 0.00168 µM, a: 0.000385 µM)

* * *

- targetOrSystem: AHR (Mus musculus)
- experimentNotes: In vitro assay 3: antagonism in mouse cell line (AHR transactivation, firefly luciferase reporter, kynurenic acid prestimulated)
- Assay type: cell-based
- cond: Hepa 1c1c7 cells, 200 μM kynurenic acid, 20 hours, firefly luciferase reporter, read-out: AHR Antagonism Mouse IC50
observedProperty: IC50 (nM)

// worked examples, IC50 included
CCCNC(=O)[C@H](C)Nc1nc2c(Br)cccc2c2nc(-c3cnn(C)c3)nn12 [Example 795] | 3130
CCOC(=O)[C@@H](C)Nc1nc2c(Br)cccc2c2nc(-c3ccc(OC)cc3)nn12 [Example 865] | 11.8
N#Cc1cccc2c1nc(N[C@@H]1CNCCNC1=O)n1nc(-c3cn[nH]c3)nc21 [Example 935] | 1120

I: CCCCNC(=O)[C@@H](C)Nc1nc2c(Br)cccc2c2nc(-c3cnn(C)c3)nn12 [Example 794]
II: O=C1NCCCC[C@H]1Nc1nc2c(Br)cccc2c2nc(-c3cnn(CC4CCC4)c3)nn12 [Example 832]
Input line: Field: lower IC50 | Options: I / II // caller expects the label of the chosen entry
Output line: II
(II: 5.68 nM, I: 21.2 nM)

I: C[C@@H](Nc1nc2c(Br)cccc2c2nc(-c3cnn(C)c3)nn12)C(=O)NCC(C)(C)N [Example 790]
II: COc1ccc(-c2nc3c4cccc(Br)c4nc(N[C@H](C)C(=O)N4C[C@H]5C[C@@H]4CO5)n3n2)cc1 [Example 899]
III: CCn1cc(-c2nc3c4cccc(C(F)(F)F)c4nc(N[C@H]4CNCCNC4=O)n3n2)c(C)n1 [Example 949]
Input line: Ranking field: IC50; order: falling. Output spec: labels arranged per the requested ranking.
Output line: I, III, II
(I: 402 nM, III: 14.7 nM, II: 0.885 nM)

* * *

- targetOrSystem: AHR (Homo sapiens, UniProt P35869)
- Construct: U87 MG glioblastoma cells (ATCC #HTB-14) endogenously expressing AHR; endogenous in cells; host or cells: U87 MG glioblastoma cells (ATCC #HTB-14)
- experimentNotes: In vitro assay 1: antagonism in human cell line (AHR transactivation, firefly luciferase reporter, kynurenic acid prestimulated)
- Assay type: cell-based
- cond: AHR Antagonism Human IC50 [M]
observedProperty: IC50 (M)

CN(C)c1ccccc1-c1nc2c3ccccc3nc(N[C@@H]3CCCCNC3=O)n2n1 [Example 455] | 1.17e-07
O=C1NCCCC[C@H]1Nc1nc2ccccc2c2nc(-c3cccc(C(F)(F)F)c3)nn12 [Example 54] | 2.08e-08
NC(=O)[C@@H](CO)Nc1nc2ccccc2c2nc(-c3cccc(OC(F)(F)F)c3)nn12 [Example 313] | 1.06e-07
CC[C@@H](Nc1nc2ccccc2c2nc(-c3cscc3OC)nn12)C(N)=O [Example 338] | 1.91e-07
COc1cccc(-c2nc3c4ccccc4nc(N[C@@H](C(N)=O)C(C)C)n3n2)c1 [Example 103] | 4.43e-09

P: COc1ccc2nc(N[C@@H]3CCCCNC3=O)n3nc(-c4cnn(C)c4)nc3c2c1 [Example 238]
Q: CS(=O)(=O)c1ccc(-c2nc3c4ccccc4nc(N[C@H]4CCCCNC4=O)n3n2)cc1 [Example 375]
R: O=C1NCCCC[C@H]1Nc1nc2ccccc2c2nc(-c3ccc(O)cc3F)nn12 [Example 634]
S: Cn1cc(-c2nc3c4cccc(Br)c4nc(N[C@@H]4CCCNC4=O)n3n2)cn1 [Example 221]
T: COc1cscc1-c1nc2c3ccccc3nc(N[C@H]3CCCCNC3=O)n2n1 [Example 336]
Input line: Put these in order: smallest IC50 first, largest last. Output spec: labels arranged per the requested ranking.
Output line: R, P, S, Q, T

I: COc1ccc(-c2nc3c4cccc(Cl)c4nc(N[C@@H]4CNCCNC4=O)n3n2)cc1 [Example 421]
II: O=C1NCCCC[C@H]1Nc1nc2ccccc2c2nc(-c3nc(C(F)(F)F)no3)nn12 [Example 136]
III: COc1cccc(-c2nc3c4c(F)cccc4nc(N[C@H](C)C(N)=O)n3n2)c1 [Example 184]
IV: O=C1NCCCC[C@H]1Nc1nc2ccccc2c2nc(-c3ccc(O)cc3)nn12 [Example 614]
V: COc1ccc(-c2nc3c4c(OC)cccc4nc(N[C@@H]4CNCCNC4=O)n3n2)cc1 [Example 291]
Input line: Put these in order: smallest IC50 first, largest last. Output spec: labels arranged per the requested ranking.
Output line: I, III, IV, II, V

P: Cn1cc(-c2nc3c4cccc(C(F)(F)F)c4nc(N[C@@H]4CCCCNC4=O)n3n2)cn1 [Example 583]
Q: COc1cccc(-c2nc3c4ccccc4nc(N[C@@H](C(N)=O)c4ccccc4)n3n2)c1 [Example 89]
Input line: Field: lower IC50 | Options: P / Q // caller expects the label of the chosen entry
Output line: P
